Tested on: VCAM-1
testSummary: In Vitro VCAM-1 Assay (ELISA of TNF-α-stimulated endothelial cells)
Format: cell-based, human
conditionNotes: Homo sapiens, Endothelial cell; free acid of the Example; HAEC or HPAEC cells stimulated with TNF-α (1 ng/ml), approx. 16 h; n = 3; read-out: IC50 (μM) of the free acid (n = 3)
endpointName: IC50 (µM)

INSERT INTO measurements (compound, recordednumber) VALUES
  ('CC(C)(Sc1cc(C(C)(C)C)c(O)c(C(C)(C)C)c1)Sc1cc(C(C)(C)C)c(OCCCC(=O)O)c(C(C)(C)C)c1 [Example 3 free acid, reference compound]', 11),
  ('CC(C)(Sc1cc(C(C)(C)C)c(O)c(C(C)(C)C)c1)Sc1cc(C(C)(C)C)c(OCC(=O)O)c(C(C)(C)C)c1 [Example 2 free acid, reference compound]', 10);
